ΔTm tested on Mitogen-activated protein kinase 3 (Homo sapiens, UniProt P27361): recorded values
Sequence (P27361 whole entry): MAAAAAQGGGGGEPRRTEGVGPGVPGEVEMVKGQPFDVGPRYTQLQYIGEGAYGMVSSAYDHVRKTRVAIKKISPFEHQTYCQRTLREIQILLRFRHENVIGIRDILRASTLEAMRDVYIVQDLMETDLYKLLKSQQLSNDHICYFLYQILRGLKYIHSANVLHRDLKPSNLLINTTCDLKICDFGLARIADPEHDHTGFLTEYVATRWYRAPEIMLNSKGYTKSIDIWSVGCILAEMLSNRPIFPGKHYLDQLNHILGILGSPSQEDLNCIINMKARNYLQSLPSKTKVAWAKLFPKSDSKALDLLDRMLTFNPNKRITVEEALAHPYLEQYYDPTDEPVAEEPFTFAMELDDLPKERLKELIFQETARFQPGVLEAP
Kindly answer with a numeric value in °C, unit omitted.

State the measured ΔTm (Mitogen-activated protein kinase 3 (Homo sapiens, UniProt P27361)) of Brc1c(Br)c(Br)c2[nH]nnc2c1Br [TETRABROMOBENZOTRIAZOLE]
0

State the measured ΔTm (Mitogen-activated protein kinase 3 (Homo sapiens, UniProt P27361)) of `COc1cc(OC)c(/C=C2\C(=O)Nc3ccccc32)c(OC)c1`
0

State the measured ΔTm (Mitogen-activated protein kinase 3 (Homo sapiens, UniProt P27361)) of `CN1CCc2[nH]c(=S)c(C#N)c(-c3cccs3)c2C1`
0.6

State the measured ΔTm (Mitogen-activated protein kinase 3 (Homo sapiens, UniProt P27361)) of `O=c1cc(-c2ccc(O)cc2)oc2cc(O)cc(O)c12`
0.5

State the measured ΔTm (Mitogen-activated protein kinase 3 (Homo sapiens, UniProt P27361)) of `OC[C@H]1O[C@@H](n2cnc3cc(Cl)c(Cl)cc32)[C@H](O)[C@@H]1O`
0.4

State the measured ΔTm (Mitogen-activated protein kinase 3 (Homo sapiens, UniProt P27361)) of `NC(=O)c1ccc(-c2nc(-c3ccc4c(c3)OCCO4)c(-c3ccccn3)[nH]2)cc1`
-0.1

State the measured ΔTm (Mitogen-activated protein kinase 3 (Homo sapiens, UniProt P27361)) of `Cc1cc(C=C2C(=O)C=CC2=O)cc(C)c1O`
0.6

State the measured ΔTm (Mitogen-activated protein kinase 3 (Homo sapiens, UniProt P27361)) of `O=C1NC(=O)C(c2cn(CCCn3ccnc3)c3ccccc23)=C1Nc1ccccc1`
-0.1

State the measured ΔTm (Mitogen-activated protein kinase 3 (Homo sapiens, UniProt P27361)) of `O=C1Nc2ccc(S(=O)(=O)O)cc2/C1=C1/Nc2ccccc2/C1=N\O`
2.4

State the measured ΔTm (Mitogen-activated protein kinase 3 (Homo sapiens, UniProt P27361)) of `COc1cc2ncnc(Nc3cccc(Br)c3)c2cc1OC`
0.6

State the measured ΔTm (Mitogen-activated protein kinase 3 (Homo sapiens, UniProt P27361)) of `CCN(CC)CCNC(=O)c1c(C)[nH]c(/C=C2\C(=O)Nc3ccc(F)cc32)c1C`
0.9
